Test system: HT-29
Assay: Cytotoxicity against human HT-29 cells after 72 hrs by SRB assay
Assay type: functional, cell-based
Settings: HT-29, 48 h, in the assay text read “48 hrs” for “72 hrs”
Listed here: items and their measured IC50.

{"smilesStr": "CCCCC/C=C\\C[C@@]1(O)C=C(Br)C(=O)/C1=C/C=C/CCCC(=O)OC", "targetDesc": "HT-29", "reportedRelation": "=", "IC50 (µM)": 5.4}
{"smilesStr": "CCCCC/C=C\\C[C@@]1(O)C=C(I)C(=O)/C1=C/C=C/CCCC(=O)OC", "targetDesc": "HT-29", "reportedRelation": "=", "IC50 (µM)": 6.5}
{"smilesStr": "CCCCC/C=C\\C[C@]1(O)C=CC(=O)/C1=C/C=C\\CCCC(=O)OC", "targetDesc": "HT-29", "reportedRelation": "=", "IC50 (µM)": 6}
{"smilesStr": "CCCCC/C=C\\C[C@]1(O)C=CC(=O)/C1=C\\C=C\\CCCC(=O)OC", "targetDesc": "HT-29", "reportedRelation": "=", "IC50 (µM)": 7.9}
{"smilesStr": "CCCCC/C=C\\C[C@@]1(O)C=C(Br)C(=O)/C1=C\\C=C\\CCCC(=O)OC", "targetDesc": "HT-29", "reportedRelation": "=", "IC50 (µM)": 0.5}
{"smilesStr": "CCCCC/C=C\\C[C@@]1(O)C=C(I)C(=O)/C1=C\\C=C\\CCCC(=O)OC", "targetDesc": "HT-29", "reportedRelation": ">", "IC50 (µM)": 10}
{"smilesStr": "CCCCC/C=C\\C[C@]1(O)C=CC(=O)/C1=C/C=C/CCCC(=O)OC", "targetDesc": "HT-29", "reportedRelation": "=", "IC50 (µM)": 4.1}
{"smilesStr": "CCCCC/C=C\\C[C@]1(OC(C)=O)C=CC(=O)/C1=C/C=C/CCCC(=O)OC", "targetDesc": "HT-29", "reportedRelation": ">", "IC50 (µM)": 10}
{"smilesStr": "CCCCC/C=C\\C[C@@]1(O)C=C(Cl)C(=O)/C1=C/C=C/CCCC(=O)OC", "targetDesc": "HT-29", "reportedRelation": "=", "IC50 (µM)": 2.7}
